- System: HEK293 cells that express an HTT exon containing 17 glutamine repeats (HTT17Q-mCherry)
- Assay Summary: Huntington's Disease (HD) model: protein aggregates (puncta) per cell in HEK293H cells transfected with HTT17Q-mCherry
- Condition Label: 10 μM, 6 h; blunting formation of toxic aggregates
Measured Property: Effectiveness compared to MAL1-271 (Less/Similar/More)

>>> recorded_result("CCOC(=O)C1=CN(Cc2ccc(C(=O)NO)cc2)S(=O)(=O)N(CC2CC2)C1c1ccc(Cl)cc1Cl (stereo not drawn)")
"More"
>>> recorded_result("O=C(O)CCCN1C=C(C(=O)OCc2ccc(Cl)cc2Cl)C(c2ccc(Cl)cc2Cl)NS1(=O)=O (stereo not drawn)")
"Similar"
>>> recorded_result("CCOC(=O)C1=CN(Cc2ccc(C(=O)NO)cc2)S(=O)(=O)N(C)C1c1ccc(Cl)cc1Cl (single isomer, unassigned; (-)) [(−)-951_67]")
"Similar"
>>> recorded_result("CCOC(=O)C1=CN(Cc2ccc(C(=O)NO)cc2)S(=O)(=O)N(C)C1c1ccc(Cl)cc1Cl (stereo not drawn) [Compound 930_62]")
"More"
>>> recorded_result("O=C(CCCN1C=C(C(=O)OCc2ccccc2)C(c2ccc(Cl)cc2Cl)NS1(=O)=O)OCCN1CCOCC1 (stereo not drawn)")
"Similar"
>>> recorded_result("CCOC(=O)C1=CN(Cc2ccc(C(=O)NO)cc2)S(=O)(=O)N(C)C1c1ccc(Cl)cc1Cl (single isomer, unassigned; (+)) [(+)-951_66]")
"Less"
